# Test system: Escherichia coli
# Assay Details: Inhibition of Escherichia coli MetAP at 10 uM after 15 mins by fluorescence analysis
Calls of active or inactive are those of the source.
Parameter: inhibition

Example cases with answers are listed next.
Incoming: inhibition of COc1ccccc1/C=C1\SC(=O)NC1=O on Escherichia coli?
Outgoing: 10%

Incoming: Observed inhibition on Escherichia coli for COc1cc(/C=C2\SC(=O)NC2=O)ccc1O , please.
Outgoing: inactive

Incoming: Reported inhibition for Escherichia coli, given O=C1NC(=O)/C(=C/c2c[nH]c3ccccc23)N1 ?
Outgoing: inactive

Incoming: Give recorded inhibition with Escherichia coli for the following compound: O=C1NC(=S)N/C1=C\c1ccco1
Outgoing: inactive

Incoming: What reported inhibition corresponds to O=C1NC(=O)/C(=C/C2CCCCC2)S1 on Escherichia coli?
Outgoing: inactive

Incoming: Please state recorded inhibition (tested on Escherichia coli) of O=C1NC(=O)C(Cc2ccc(O)c(O)c2)N1 (stereo not given)
Outgoing: 84%

Incoming: Any idea what inhibition came out for O=C1NC(=O)C(Cc2cccs2)N1 (stereo not given) on Escherichia coli?
Outgoing: inactive

Incoming: # query: inhibition | item O=C1NC(=S)S/C1=C\c1ccco1 | system: Escherichia coli
Outgoing: inactive

Incoming: Give Escherichia coli inhibition for O=C1NC(=O)/C(=C/c2sccc2Br)N1
Outgoing: inactive

Incoming: Provide value of inhibition for this record tested with Escherichia coli: CCCC/C=C1\NC(=S)NC1=O
Outgoing: 66%

New cases:
Incoming: What value of inhibition on Escherichia coli does O=C1NC(=O)[C@H](Cc2ccccc2)N1 have?
Outgoing: 22%

Incoming: Request: inhibition, test system Escherichia coli, entry O=C1NC(=S)S/C1=C\C1CCCCC1
Outgoing: 40%

Incoming: Notebook: pull reported inhibition for Escherichia coli, entry O=C1NC(=S)N/C1=C\C=C\c1ccco1
Outgoing: 23%

Incoming: I'm curious: which inhibition was measured for CC(=O)N1C(=S)NC(=O)[C@@H]1CCC(N)=O tested on Escherichia coli?
Outgoing: 13%

Incoming: Param readout = inhibition; param system = Escherichia coli; param query = O=C1NC(=O)/C(=C/c2c(F)c(F)c(F)c(F)c2F)S1 ; response: value
Outgoing: inactive

###

# System: Dengue virus
# Assay Details: Inhibition of Dengue virus NS2B-NS3 protease using Abz-NleKRRS-3-(NO2)Y as substrate at 50 uM preincubated for 15 mins measured every sec for 15 mins by fluorimetric analysis
Calls of active or inactive are those of the source.
Parameter: inhibition

Incoming: What value of inhibition has been reported for the following compound? O=C1NC(=O)/C(=C/c2ccc3ccccc3c2)S1
Outgoing: inactive

Incoming: Any idea what its inhibition is? The compound is COc1ccc(/C=C2\SC(=O)NC2=O)cc1
Outgoing: 19%

Incoming: Need inhibition, item O=C1NC(=O)/C(=C/c2cccs2)N1
Outgoing: 16%

Incoming: So what's the measured inhibition for this one? C/C(=C1/SC(=S)NC1=O)c1ccc(F)cc1
Outgoing: inactive

Incoming: Which measured inhibition value corresponds to CCCCC/C=C1\NC(=S)NC1=O ?
Outgoing: 18%

---
Incoming: Given the entry NC(=O)CC[C@@H]1NC(=S)NC1=O , report its measured inhibition.
Outgoing: 10%

Incoming: Requested read-out: inhibition. Entry: O=C1NC(=O)/C(=C/c2c(F)c(F)c(F)c(F)c2F)S1
Outgoing: 12%

###

# Target Or Test System: Prothrombin (Bos taurus) (UniProt P00735)
# Assay Details: Inhibition of bovine plasma thrombin using Boc-Val-Pro-Arg-AMC as substrate at 25 uM preincubated for 15 mins measured after 10 mins by fluorimetric assay
Calls of active or inactive are those of the source.
Parameter: inhibition

Incoming: Recorded inhibition of O=C1NC(=O)/C(=C/c2ccc(Cl)cc2Cl)N1 , please.
Outgoing: inactive

Incoming: Quick check: inhibition of CC(=O)N1C(=S)NC(=O)[C@@H]1Cc1c[nH]c2ccccc12 ?
Outgoing: inactive

Incoming: Give the measured inhibition of O=C1NC(=S)S/C1=C\c1sccc1Br .
Outgoing: 24%

Incoming: // returns reported inhibition for input O=C1NC(=O)/C(=C/c2cccc(O)c2)S1
Outgoing: inactive

Incoming: Need inhibition, item O=C1NC(=S)S/C1=C\c1ccc(Br)s1
Outgoing: 22%

Incoming: I am curious: what inhibition value has been reported for CC(=O)n1cc(/C=C2\NC(=S)NC2=O)c2ccccc21 ?
Outgoing: 11%

Incoming: Requested field: inhibition. Item: O=C1NC(=O)/C(=C/c2sccc2Br)S1
Outgoing: 18%

Incoming: Which value of inhibition has been reported for COc1ccc(/C=C/C=C2\NC(=S)NC2=O)cc1 in the records?
Outgoing: 18%

Further cases:
Incoming: Consider the compound shown here: O=C1NC(=S)S/C1=C\c1ccc([N+](=O)[O-])cc1 What is its recorded inhibition?
Outgoing: 25%

Incoming: Can you look up the measured inhibition of O=C1NC(=S)N[C@H]1Cc1ccc(O)cc1 for me?
Outgoing: inactive

Incoming: # lookup: inhibition of CCCCC/C=C1\NC(=S)NC1=O
Outgoing: 16%

Incoming: // query inhibition value for entry O=C1NC(=S)N/C1=C\c1ccc(O)cc1
Outgoing: 39%

Incoming: Given the compound COc1ccc(/C=C2\SC(=O)NC2=O)cc1OC , what is its reported inhibition?
Outgoing: 23%

Incoming: Data request, read-out inhibition, for COc1cc(/C=C2\SC(=O)NC2=O)ccc1O
Outgoing: 27%

###

# System: Escherichia coli
# Assay Details: Inhibition of Escherichia coli MurA using PEP as substrate assessed as inorganic phosphate release at 25 uM preincubated for 10 mins measured after 60 mins […]
Active and inactive are the calls of the source.
Parameter: inhibition

Worked examples, 10 compounds total:
Incoming: Provide the documented inhibition with Escherichia coli as the system for O=C1NC(=S)N/C1=C\c1ccc2ccccc2c1
Outgoing: 32%

Incoming: Request - read-out inhibition | tested on Escherichia coli | compound O=C1NC(=S)N/C1=C\c1sccc1Br
Outgoing: 31%

Incoming: Write down the reported inhibition of COc1ccc(/C=C/C=C2\NC(=S)NC2=O)cc1 , test system: Escherichia coli.
Outgoing: 48%

Incoming: inhibition of CN(C)c1ccc(/C=C2\NC(=O)NC2=O)cc1 on Escherichia coli?
Outgoing: inactive

Incoming: Reported inhibition for Escherichia coli, given O=C1NC(=O)/C(=C/c2ccc(Cl)cc2Cl)S1 ?
Outgoing: inactive

Incoming: Find inhibition (Escherichia coli) for the entry O=C1NC(=O)/C(=C/c2ccc([N+](=O)[O-])cc2)S1
Outgoing: inactive

Incoming: Request body: readout inhibition, system Escherichia coli, query O=C1NC(=O)/C(=C/c2ccc([N+](=O)[O-])cc2)N1 . Return the value.
Outgoing: inactive

Incoming: Notebook entry, Escherichia coli assay: inhibition of COc1cc(/C=C2\SC(=O)NC2=O)ccc1O = ?
Outgoing: 100%

Incoming: Please state recorded inhibition (tested on Escherichia coli) of O=C1NC(=S)NC1Cc1cccs1 (stereo unspecified)
Outgoing: inactive

Incoming: Entry CCCCC/C=C1\SC(=S)NC1=O , system Escherichia coli: what inhibition was measured?
Outgoing: 14%

Note: attention shifts to another entry.
Incoming: Value wanted: inhibition (Escherichia coli) of entry COc1cc(/C=C2\NC(=O)NC2=O)ccc1O
Outgoing: 17%

###

# Tested on: Dengue virus
# Assay Details: Inhibition of Dengue virus NS2B-NS3 protease using Abz-NleKRRS-3-(NO2)Y as substrate at 50 uM preincubated for 15 mins measured every sec for 15 mins by fluorimetric analysis
Parameter: inhibition

Incoming: Request the reported inhibition associated with Cn1cc(/C=C2\SC(=S)NC2=O)c2ccccc21
Outgoing: 45%

Incoming: For O=C1NC(=S)S/C1=C\c1ccc2ccccc2c1 , what is its reported inhibition?
Outgoing: 56%

Incoming: I would be grateful if you could share the reported inhibition for O=C1NC(=O)/C(=C/c2cccc(O)c2)N1 .
Outgoing: 27%

Incoming: Can you share its inhibition? I mean this compound: O=C1NC(=S)S/C1=C\c1ccc(Cl)cc1Cl
Outgoing: 46%

Incoming: What measured inhibition goes with COc1ccc(/C=C2\NC(=O)NC2=O)cc1OC ?
Outgoing: 18%

Incoming: Please report the recorded inhibition for CCC/C=C/C1SC(=S)NC1=O (configuration not stated) .
Outgoing: 23%

###

# Target Or Test System: Prothrombin (Bos taurus) (UniProt P00735)
# Assay Details: Inhibition of bovine plasma thrombin using Boc-Val-Pro-Arg-AMC as substrate at 25 uM preincubated for 15 mins measured after 10 mins by fluorimetric assay
inhibition of 30% or higher: 1. Under 30%: -1.

Incoming: Dear colleague, could you confirm whether COc1ccc(/C=C2\SC(=S)NC2=O)cc1OC has inhibition at or above 30%?
Outgoing: -1

Incoming: Threshold query (inhibition >= 30%) on O=C1NC(=O)/C(=C/c2ccc(O)c(O)c2)N1
Outgoing: 1

Incoming: Has O=C1NC(=O)/C(=C/c2cccs2)N1 a recorded inhibition greater than or equal to 30%?
Outgoing: -1

Incoming: Can COc1ccc(/C=C2\NC(=S)NC2=O)cc1OC be said to have inhibition at or above 30%?
Outgoing: -1
